Data provenance is patent US20060062758A1.

Test Name: Permeation kinetics across the in vitro epithelial tissue model
Experimental Context: human, pH 5, Papp, [PN159] 0 μM; galantamine 40 mg/mL pH 5.0; calcitonin 1 mg/mL pH 3.5; PTH1-34 1 mg/mL pH 4.5; PYY3-36 1 mg/mL, pH was 5.0
Measurement Kind: Papp at 120 min, 40 mg/mL

Ask | Fill in reported Papp at 120 min, 40 mg/mL for this entry: COc1ccc2c3c1O[C@H]1C[C@@H](O)C=C[C@@]31CCN(C)C2 [Galantamine, galantamine, reference compound]
Reply | ~2.1 ×10⁻⁶ cm/s

###

Test Name: Permeation kinetics across the in vitro epithelial tissue model
Experimental Context: human, pH 5, Papp, [PN159] 50 μM; galantamine 40 mg/mL pH 5.0; calcitonin 1 mg/mL pH 3.5; PTH1-34 1 mg/mL pH 4.5
Measurement Kind: Papp at 120 min, 40 mg/mL (×10⁻⁶ cm/s)
Value expressed in ×10⁻⁶ cm/s; do not type the unit.

Ask | Fill in reported Papp at 120 min, 40 mg/mL for this entry: COc1ccc2c3c1O[C@H]1C[C@@H](O)C=C[C@@]31CCN(C)C2 [Galantamine, galantamine, reference compound]
Reply | 6.2
